The measurements presented in this section are drawn from PubChem BioAssay.

assayedSystem: Voltage-gated potassium channel subunit beta-2 (Rattus norvegicus)
assayText: inhibitors of rat Kvbeta2 reductase activity – biochemical, NADPH fluorescence, primary screen (AID 622);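 further: slope of raw intensity against log time taken from 70 to 1610 s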
testConditions: recombinant KvBeta, 4-cyanobenzaldehyde reduction, at 10 µM, stronger effect = higher value
Please use t whenever fluorescence slope is not below -0.5, and f whenever it is.

Example entries begin here.
compound | classAssignment
COc1ccccc1NC(=O)C1=C(C)Nc2ncnn2C1c1ccc(C)o1 (stereo not given) | f
COC(=O)c1[nH]c2ccccc2c1NC(=O)CN1CCC(C(N)=O)(N2CCCCC2)CC1 | f
CCC(=O)N(Cc1cc2c(C)ccc(C)c2[nH]c1=O)C1CCCCC1 | t

In plain terms: is recorded fluorescence slope at least -0.5 for "COc1cccc(Nc2c(F)c(F)c(F)c(F)c2C(=O)O)c1" ? f

Entry to check: "CCCCNC(=O)NS(=O)(=O)c1ccc(C)cc1" t

Entry to check: "O=c1n(CCCN2CCN(c3cccc(Cl)c3)CC2)nc2ccccn12" t

Entry to check: O=C(NC1CC2CCC1C2)C1COc2ccccc2O1 (stereo not given) t

Entry to check: "CCOC(=O)c1c(C)oc2c1c(C=NCc1ccccn1)c(O)c1ccccc12" t

Entry to check: "NC(=O)c1oc2ccc(Cl)cc2c1NC(=O)CN1CCOCC1" f
